- experiment: DRUGMATRIX: Phosphodiesterase PDE3 enzyme inhibition (substrate: [3H]cAMP + cAMP)
- Format: tissue-based, Homo sapiens
- applied-conditions: platelet; Not Active = under 50% inhibition at 10 µM; read-out: IC50

{"chem-smiles": "O=c1c(-c2ccc(O)cc2)coc2cc(O)cc(O)c12", "display-unit": "µM", "IC50": 11}

----------
- system-under-test: Nitric oxide synthase, inducible (Mus musculus, UniProt P29477); note: in other assays of this panel Not Active means under 50% inhibition at 10 µM;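 note: inhibition of iNOS enzyme activity measured with L-arginine as substrate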
- Sequence (P29477 whole entry): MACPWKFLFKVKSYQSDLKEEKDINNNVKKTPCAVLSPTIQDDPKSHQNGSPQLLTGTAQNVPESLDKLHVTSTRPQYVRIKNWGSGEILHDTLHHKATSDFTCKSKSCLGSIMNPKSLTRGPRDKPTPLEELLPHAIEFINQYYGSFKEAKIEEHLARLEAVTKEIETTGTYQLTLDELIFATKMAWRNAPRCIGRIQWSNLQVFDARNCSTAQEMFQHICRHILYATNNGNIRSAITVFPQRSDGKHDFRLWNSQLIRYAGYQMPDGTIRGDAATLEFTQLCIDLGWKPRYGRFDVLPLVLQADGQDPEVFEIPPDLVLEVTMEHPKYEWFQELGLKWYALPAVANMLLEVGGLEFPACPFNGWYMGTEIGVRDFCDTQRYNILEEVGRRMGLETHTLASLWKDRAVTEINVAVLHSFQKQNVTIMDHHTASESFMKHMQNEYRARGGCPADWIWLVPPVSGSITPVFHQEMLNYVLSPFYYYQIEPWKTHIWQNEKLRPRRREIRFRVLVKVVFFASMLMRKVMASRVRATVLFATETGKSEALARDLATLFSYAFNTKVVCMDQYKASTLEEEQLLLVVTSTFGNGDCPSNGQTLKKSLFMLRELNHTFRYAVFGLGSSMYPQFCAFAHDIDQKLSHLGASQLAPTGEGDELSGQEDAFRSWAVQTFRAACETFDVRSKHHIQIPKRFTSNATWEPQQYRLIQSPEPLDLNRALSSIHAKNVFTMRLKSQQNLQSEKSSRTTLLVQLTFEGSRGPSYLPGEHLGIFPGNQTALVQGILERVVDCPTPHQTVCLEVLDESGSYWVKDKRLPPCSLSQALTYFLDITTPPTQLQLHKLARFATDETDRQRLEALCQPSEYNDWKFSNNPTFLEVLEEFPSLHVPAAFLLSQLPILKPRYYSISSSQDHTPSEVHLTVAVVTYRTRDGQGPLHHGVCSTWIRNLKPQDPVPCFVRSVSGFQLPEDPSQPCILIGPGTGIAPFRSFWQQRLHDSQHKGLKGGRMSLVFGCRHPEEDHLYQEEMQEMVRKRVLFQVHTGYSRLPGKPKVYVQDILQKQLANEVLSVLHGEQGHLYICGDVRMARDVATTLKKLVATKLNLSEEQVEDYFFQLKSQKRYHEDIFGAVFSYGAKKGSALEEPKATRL
- Set-up: species or system Escherichia coli

{"compound": "CCOc1nc2cccc(C(=O)O)c2n1Cc1ccc(-c2ccccc2-c2nnn[nH]2)cc1", "system-under-test": "Nitric oxide synthase, inducible (Mus musculus, UniProt P29477)", "IC50": "Not Active"}
{"compound": "CN1CCCC(CN2c3ccccc3Sc3ccccc32)C1 (stereo not drawn)", "system-under-test": "Nitric oxide synthase, inducible (Mus musculus, UniProt P29477)", "IC50": "Not Active"}
{"compound": "C[C@@H]1C/C=C/C=C/C=C/C=C/[C@H](O[C@@H]2O[C@H](C)[C@@H](O)[C@H](N)[C@@H]2O)C[C@@H]2O[C@](O)(C[C@@H](O)C[C@H]3O[C@@H]3/C=C/C(=O)O1)C[C@H](O)[C@H]2C(=O)O", "system-under-test": "Nitric oxide synthase, inducible (Mus musculus, UniProt P29477)", "IC50": "Not Active"}

----------
- system-under-test: 5-hydroxytryptamine receptor 2B (Homo sapiens, UniProt P41595); note: in other assays of this panel Not Active means under 50% inhibition at 10 µM
- Sequence (P41595 whole entry): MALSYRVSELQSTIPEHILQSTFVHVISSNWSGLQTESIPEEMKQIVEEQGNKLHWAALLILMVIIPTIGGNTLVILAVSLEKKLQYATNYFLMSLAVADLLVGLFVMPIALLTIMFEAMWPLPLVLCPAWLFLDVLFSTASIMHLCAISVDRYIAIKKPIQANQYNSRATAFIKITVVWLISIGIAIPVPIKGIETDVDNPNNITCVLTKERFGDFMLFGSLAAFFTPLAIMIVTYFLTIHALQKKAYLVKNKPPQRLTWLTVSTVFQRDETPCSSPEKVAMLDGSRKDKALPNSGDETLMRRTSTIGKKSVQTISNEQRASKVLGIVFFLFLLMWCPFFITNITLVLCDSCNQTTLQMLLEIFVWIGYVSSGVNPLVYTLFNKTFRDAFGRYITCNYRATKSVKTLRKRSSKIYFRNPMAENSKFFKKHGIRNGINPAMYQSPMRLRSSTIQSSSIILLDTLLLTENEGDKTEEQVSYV
- Type: cell membranes, CHO-K1, Membrane
- applied-conditions: cho-k1

{"substance": "TRANSPLATIN", "Ki": "Not Active"}
{"substance": "COBALTOUS CHLORIDE", "Ki": "Not Active"}
{"substance": "COLISTIN", "Ki": "Not Active"}
{"substance": "ZIRCONIUM(IV) CHLORIDE", "Ki": "Not Active"}

----------
- system-under-test: Alpha-2C adrenergic receptor (Homo sapiens, UniProt P18825)
- Sequence (P18825 whole entry): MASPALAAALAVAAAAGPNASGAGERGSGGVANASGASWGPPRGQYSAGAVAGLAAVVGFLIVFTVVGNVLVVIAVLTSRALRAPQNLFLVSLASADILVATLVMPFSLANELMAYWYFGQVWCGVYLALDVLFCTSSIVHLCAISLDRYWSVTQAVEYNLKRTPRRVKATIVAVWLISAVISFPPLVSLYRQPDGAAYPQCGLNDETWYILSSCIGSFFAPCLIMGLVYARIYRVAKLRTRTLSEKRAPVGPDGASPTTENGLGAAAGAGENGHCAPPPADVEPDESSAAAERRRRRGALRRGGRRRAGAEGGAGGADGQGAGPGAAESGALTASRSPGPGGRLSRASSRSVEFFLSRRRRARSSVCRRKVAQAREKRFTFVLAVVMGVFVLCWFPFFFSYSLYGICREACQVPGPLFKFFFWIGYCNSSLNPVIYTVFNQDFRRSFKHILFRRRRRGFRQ
- experiment: DRUGMATRIX: Adrenergic Alpha-2C radioligand binding (ligand: [3H] MK-912)
- Type: cell membranes, Sf9, Membrane
- applied-conditions: sf9
readout-kind: IC50

{"compound": "Nc1ccc(S(=O)(=O)NC(=O)c2ccccc2)cc1 [SULFABENZAMIDE]", "readout-kind": "IC50", "reported": "Not Active"}
{"compound": "CN1CCN(c2c(F)cc3c(=O)c(C(=O)O)cn(CCF)c3c2F)CC1 [FLEROXACIN]", "readout-kind": "IC50", "reported": "Not Active"}
{"compound": "NC(=O)N1c2ccccc2CC(=O)c2ccccc21 [OXCARBAZEPINE]", "readout-kind": "IC50", "reported": "Not Active"}
{"compound": "O=C(O)CCCc1cccs1", "readout-kind": "IC50", "reported": "Not Active"}
{"compound": "O=c1[nH]c(=O)n([C@H]2C[C@H](O)[C@@H](CO)O2)cc1F [FLOXURIDINE]", "readout-kind": "IC50", "reported": "Not Active"}
{"compound": "O=C(O)P(=O)(O)O [FOSCARNET]", "readout-kind": "IC50", "reported": "Not Active"}
{"compound": "CCN(CC)CCNC(=O)c1ccc(N)cc1 [PROCAINAMIDE]", "readout-kind": "IC50", "reported": "Not Active"}
{"compound": "O=C(c1ccccc1F)N1CCC(Cc2ccccc2)CC1", "readout-kind": "IC50", "reported": "Not Active"}
{"compound": "O=C(O)CC(O)(CC(=O)O)C(=O)O [CITRIC ACID]", "readout-kind": "IC50", "reported": "Not Active"}
{"compound": "C[C@H]1COc2c(N3CCN(C)CC3)c(F)cc3c(=O)c(C(=O)O)cn1c23.C[C@H]1COc2c(N3CCN(C)CC3)c(F)cc3c(=O)c(C(=O)O)cn1c23.O [LEVOFLOXACIN]", "readout-kind": "IC50", "reported": "Not Active"}
